# System: HCT-116 colon
# procedure.text: NCI-60 one-dose screen, 48 h
# details: 10 µM unless noted
About 83,000 compounds went through this panel and 20% of them were active in at least one assay; those are over-represented in the sample as a whole. Calls of active or inactive are those of the source. Rule for the calls: active = growth percent below 10; inactive = the rest.
Labels: active, inactive

{"molecule": "Cc1ccc(C2CC(c3ccc(Nc4nc(NCCO)nc(Nc5ccc(Cl)cc5)n4)cc3)=NN2c2cc(Cl)cc(Cl)c2)cc1 (centres undefined)", "category.label": "inactive"}
{"molecule": "O=c1oc2ccc(Br)cc2c(=O)n1-c1ccc(I)cc1F", "category.label": "active"}
{"molecule": "Oc1[nH]c2ccccc2c1N=Nc1nnc2n1N=C(c1ccccc1)CS2", "category.label": "inactive"}
{"molecule": "Cc1ccc2sc3c(NCCCNCCO)nc4ccccc4c3c(=O)c2c1", "category.label": "active"}
{"molecule": "O=C(Nc1ccc(F)c(Cl)c1)Nc1ccc(Cl)c(Cl)c1", "category.label": "inactive"}
{"molecule": "COC(=O)/C(CCC=C(C)C)=C1\\[C@@H](OC(C)=O)C[C@@]2(C)[C@H]1C[C@@H](O)[C@H]1[C@@]3(C)CC[C@H](NCc4ccccc4)[C@@H](C)[C@@H]3CC[C@@]12C", "category.label": "inactive"}
{"molecule": "CN1C(=O)N(C)C2C1NN=c1s/c(=C\\c3ccc([N+](=O)[O-])cc3)c(=O)n12 (centres undefined)", "category.label": "inactive"}
{"molecule": "Cc1ccc(S(=O)(=O)c2c(COC(=O)c3cccc(C)c3)c(-c3ccccc3)nn2C)cc1", "category.label": "active"}
{"molecule": "c1ccc2cc3c(Nc4ccc(N5CCOCC5)cc4)ccnc3cc2c1", "category.label": "inactive"}
{"molecule": "O=C(CSc1nc2ccccc2c(=O)n1-c1ccccc1)Nc1ccc(C(=O)/C=C/c2ccc(Cl)cc2)cc1", "category.label": "inactive"}
{"molecule": "O=c1c2cc(F)ccc2sc2c(Nc3ccncc3)nc3ccccc3c12", "category.label": "active"}
{"molecule": "O=C(CSc1ccc2nnc(-c3cccc(F)c3)n2n1)Nc1ccc2c(c1)OCO2", "category.label": "inactive"}
{"molecule": "COC(=O)/C(CCC=C(C)C)=C1\\[C@@H](OC(C)=O)C[C@@]2(C)[C@H]1CC(=O)N[C@H]1[C@@]3(C)CCNC(=O)[C@@H](C)[C@@H]3CC[C@@]12C", "category.label": "inactive"}
{"molecule": "CC(=O)c1ccc(Cc2ccc(C(C)=O)s2)s1", "category.label": "inactive"}
{"molecule": "COc1cc(NC(=O)CCSc2nc3ccccc3c(=O)n2CCc2ccccn2)cc(OC)c1OC", "category.label": "inactive"}
{"molecule": "Cc1ccc(NCCNCC(O)CO)c2c(=O)c3ccccc3sc12 (centres undefined)", "category.label": "active"}
{"molecule": "O=c1oc2ccc(Br)cc2c(=O)n1-c1ccc(F)cc1F", "category.label": "active"}
{"molecule": "O=C(NCc1ccco1)C1CN(c2ccc(Cl)cc2)N(c2ccc(Cl)cc2)C1=O (centres undefined)", "category.label": "inactive"}
{"molecule": "C1=CC2(C=C1)OC21CCC2(C=CC3(C2)OC3C2CCCCC2)CC1 (centres undefined)", "category.label": "inactive"}
